The following molecules are listed with their measured activation values.
# assay-target: Cellular tumor antigen p53 (Homo sapiens)
# experiment-description: Primary qHTS for small molecule compounds that upregulate eGFP-tagged delta133p53alpha (in N-terminal) cells. (AID 2060322);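 also: cells pre-induced with doxycycline then dosed without doxycycline; series mostly up to about 56 µM; 0% = DMSO vehicle and 100% = reference activator; nearly all actives have a fitted effect of over 75% in size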
# experimental-conditions: NCI-H358 eGFP-delta133p53alpha fluorescence, 24 h; active compounds read high
Results filed as inconclusive are left out.
Report as a plain number; the unit % is understood.

See these solved cases before continuing.
molecule: C=C[C@H]1[C@H](O[C@@H]2O[C@H](CO)[C@@H](O)[C@H](O)[C@H]2O)OC=C(C(=O)OC)[C@H]1C[C@@H]1N[C@H](C(=O)O)Cc2c1[nH]c1ccccc21
assay-target: Cellular tumor antigen p53 (Homo sapiens)
property: activation
value-unit: %
assay-value: -4.58
//
molecule: c1ccc(Cc2ncc3c(n2)CCNCC3)cc1
assay-target: Cellular tumor antigen p53 (Homo sapiens)
property: activation
value-unit: %
assay-value: 7
//
molecule: O=C(/C=C/c1ccc(O)c(O)c1)O[C@@H]1[C@@H](O)[C@H](OC2CCCCC2O)O[C@H](CO)[C@H]1O (stereo not given in full)
assay-target: Cellular tumor antigen p53 (Homo sapiens)
property: activation
value-unit: %
assay-value: 2.29
//
molecule: CC(=O)O[C@H]1CC(C)(C)CC2[C@@]13[C@H](O)C[C@]1(C)[C@@]2(CCC2[C@@]4(C)CC[C@H](O[C@@H]5OC[C@H](O[C@@H]6O[C@H](CO)[C@@H](O)[C@H](O)[C@H]6O[C@@H]6OC[C@@H](O)[C@H](O)[C@H]6O)[C@H](O)[C@H]5O[C@@H]5O[C@H](CO)[C@@H](O)[C@H](O)[C@H]5O)C(C)(C)C4CC[C@]21C)O[C@@H]3O (stereo not given in full)
assay-target: Cellular tumor antigen p53 (Homo sapiens)
property: activation
value-unit: %
assay-value: -7.63
//
molecule: C[C@@H]1C[C@H]2O[C@@]3(O[C@@H]2C(C)(C)O)C(O)[C@@]2(C)C4CCC5C(C)(C)[C@@H](O[C@H]6OC[C@H](O)[C@@H](O)[C@@H]6O)CC[C@@]56C[C@@]46CC[C@]2(C)C13 (stereo not given in full)
assay-target: Cellular tumor antigen p53 (Homo sapiens)
property: activation
value-unit: %
assay-value: -26.7
//
molecule: CC(=O)N(CC(O)CO)c1c(I)c(C(=O)NCC(O)CO)c(I)c(C(=O)NCC(O)CO)c1I (stereo not given)
assay-target: Cellular tumor antigen p53 (Homo sapiens)
property: activation
value-unit: %
assay-value: -16.7

QUERY: Query: activation; subject: Cc1ccc(C(C)(O)c2nc3ccccc3s2)c(C)c1 (stereo not given)
RESULT: 5.91

QUERY: And NC(=O)NCCCC(NC(=O)Cc1ccccc1)C(=O)O (stereo not given) ?
RESULT: -1.79
